- assaySystem: M1 receptor (rat cortex) (Rattus norvegicus, UniProt P08482)
- Construct: from tissue; host or cells: rat brain cortex
- protocolText: M1 [3H]pirenzepine binding in rat cortex
- conditionParameters: rat cortex; [3H]pirenzepine; read-out: M1 3H PZ binding in rat cortex, IC50
quantity: IC50 (nM)
One number for each entry, in nM.

For record CN(C)CCOC(=O)c1csc(NC(=O)c2cc(C(C)(C)C)c(O)c(C(C)(C)C)c2)n1 the listed IC50 is 54

---

- assaySystem: M1 receptor (rat cortex) (Rattus norvegicus)
- Construct: from tissue; host or cells: rat brain cortex
- Sequence (P08482 1-460): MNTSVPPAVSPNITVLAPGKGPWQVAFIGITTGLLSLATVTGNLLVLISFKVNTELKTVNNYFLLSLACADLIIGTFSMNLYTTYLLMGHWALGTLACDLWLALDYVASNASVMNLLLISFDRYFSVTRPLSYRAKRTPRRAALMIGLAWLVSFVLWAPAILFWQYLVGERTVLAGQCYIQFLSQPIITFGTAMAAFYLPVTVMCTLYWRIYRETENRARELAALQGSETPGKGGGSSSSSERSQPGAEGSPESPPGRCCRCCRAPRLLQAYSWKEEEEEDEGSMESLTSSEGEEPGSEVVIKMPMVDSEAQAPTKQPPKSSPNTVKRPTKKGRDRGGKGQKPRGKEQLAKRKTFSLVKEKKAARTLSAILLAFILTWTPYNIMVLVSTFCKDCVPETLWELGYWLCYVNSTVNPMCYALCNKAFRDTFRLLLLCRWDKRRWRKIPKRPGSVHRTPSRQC
- protocolText: M1 [3H]pirenzepine binding in rat cortex
- conditionParameters: read-out: M1 3H PZ binding in rat cortex at 1 μM, % inhibition
What inhibition at 1 µM was measured for each of the following?
Answers are plain numbers, in %.

[
  {
    "compound": "CC(C)(C)c1cc(C(=O)Nc2nc(C(=O)OCCN3CC4CCC(CC4)C3)cs2)cc(C(C)(C)C)c1O",
    "assaySystem": "M1 receptor (rat cortex) (Rattus norvegicus)",
    "unitAnnotation": "%",
    "inhibition at 1 µM": 90.6
  },
  {
    "compound": "CC(C)(C)c1cc(C(=O)Nc2nc(C(=O)NCCCCN3CC4CCC(CC4)C3)cs2)cc(C(C)(C)C)c1O",
    "assaySystem": "M1 receptor (rat cortex) (Rattus norvegicus)",
    "unitAnnotation": "%",
    "inhibition at 1 µM": 86
  },
  {
    "compound": "CC(C)(C)c1cc(C(=O)Nc2nc(C(=O)NCCN3CC4CCC(CC4)C3)cs2)cc(C(C)(C)C)c1O",
    "assaySystem": "M1 receptor (rat cortex) (Rattus norvegicus)",
    "unitAnnotation": "%",
    "inhibition at 1 µM": 70.5
  },
  {
    "compound": "O=C(Nc1nc(C(=O)NCCCCN2CC3CCC(CC3)C2)cs1)c1ccc(O)cc1",
    "assaySystem": "M1 receptor (rat cortex) (Rattus norvegicus)",
    "unitAnnotation": "%",
    "inhibition at 1 µM": 63.9
  },
  {
    "compound": "O=C(Nc1nc(C(=O)NCCCCN2CC3CCC(CC3)C2)cs1)c1ccc(OCc2ccccc2)cc1",
    "assaySystem": "M1 receptor (rat cortex) (Rattus norvegicus)",
    "unitAnnotation": "%",
    "inhibition at 1 µM": 62
  },
  {
    "compound": "CC(C)(C)c1cc(C(=O)Nc2nc(C(=O)NCCCN3CC4CCC(CC4)C3)cs2)cc(C(C)(C)C)c1O",
    "assaySystem": "M1 receptor (rat cortex) (Rattus norvegicus)",
    "unitAnnotation": "%",
    "inhibition at 1 µM": 78
  }
]

Your task in this section: give inhibition at 1 µM for each listed record.
1. O=C(Nc1nc(C(=O)NCCCN2CC3CCC(CC3)C2)cs1)c1ccc(O)cc1
2. O=C(Nc1nc(C(=O)NC2CN3CCC2CC3)cs1)c1ccc(OCc2ccccc2)cc1 (stereo not shown)

1: 58.7; 2: 85.8

Your task in this section: give inhibition at 1 µM for each listed record.
1. O=C(Cc1csc(NC(=O)c2ccc(F)cc2)n1)NCCCCN1CC2CCC(CC2)C1
2. CC(C)(C)c1cc(C(=O)Nc2nc(C(=O)NC3CN4CCC3CC4)cs2)cc(C(C)(C)C)c1O (stereo not shown)

1. 57
2. 104
